Entry source: patent US8003783B2

biological target: 17β-HSD1 (Homo sapiens, UniProt P14061); construct: was measured in intact cell monolayers of T47D and MDA-MB-231 breast cancer cells respectively; endogenous in cells; host or cells: T-47D human breast cancer cells; assay: 17β-HSD Type I activity in T-47D cells (E1→E2); type: cell-based; conditions: T47D, 10 μM; T-47D cells, E1→E2; read-out: % inhibition of 17β-HSD1 @ 10 μM
Sequence (P14061 whole entry): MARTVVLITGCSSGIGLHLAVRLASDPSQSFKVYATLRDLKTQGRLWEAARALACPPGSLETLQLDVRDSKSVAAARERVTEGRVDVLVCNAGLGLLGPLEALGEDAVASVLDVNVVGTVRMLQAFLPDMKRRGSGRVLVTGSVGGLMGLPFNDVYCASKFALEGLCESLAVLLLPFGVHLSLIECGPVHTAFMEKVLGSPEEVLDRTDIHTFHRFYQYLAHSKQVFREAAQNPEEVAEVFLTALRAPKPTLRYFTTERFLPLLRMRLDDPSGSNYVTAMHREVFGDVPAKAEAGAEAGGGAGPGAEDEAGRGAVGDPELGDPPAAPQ
Classification field: Y = inhibition at 10 µM at or over 90%; N = inhibition at 10 µM under 90%.

- C[C@]12CCC3c4ccc(O)cc4CCC3C1CC(CC(=O)O)[C@@H]2O (some centres unmarked): N
- C[C@]12CCC3c4ccc(O)cc4CCC3C1CC(CO)[C@@H]2O (some centres unmarked): N
- C[C@]12CCC3c4ccc(OS(N)(=O)=O)cc4CCC3C1C/C(=C\c1ccncc1)C2=O (some centres unmarked): N
- C[C@]12CCC3c4ccc(O)cc4C(=O)CC3C1CCC2=O (some centres unmarked): Y
- CN(C)CCCNC(=O)CC1CC2C3CCc4cc(O)ccc4C3CC[C@]2(C)C1=O (some centres unmarked): N
- C[C@]12CCC3c4ccc(OS(N)(=O)=O)cc4CCC3C1C/C(=C\c1cccnc1)C2=O (some centres unmarked): N
- C[C@]12CCC3c4ccc(O)cc4CCC3C1C/C(=C/O)C2=O (some centres unmarked): Y
- COc1cc(/C=C2\CC3C4CCc5cc(OS(N)(=O)=O)ccc5C4CC[C@]3(C)[C@H]2O)cc(OC)c1OC (some centres unmarked): N
- CCNC(=O)CC1CC2C3CCc4cc(O)ccc4C3CC[C@]2(C)C1=O (some centres unmarked): N
- CCN(CC)C(=O)CC1CC2C3CCc4cc(O)ccc4C3CC[C@]2(C)[C@H]1O (some centres unmarked): N
- COCCn1cc2c(n1)[C@@]1(C)CCC3c4ccc(O)cc4CCC3C1C2 (some centres unmarked): Y
- CCOC(=O)c1[nH]nc2c1CC1C3CCc4cc(O)ccc4C3CC[C@]21C (some centres unmarked): Y
- C[C@]12CCC3c4ccc(O)cc4C(=O)CC3C1C/C(=C/O)C2=O (some centres unmarked): Y
- C[C@]12CCC3C4CC=C(O)C=C4CCC3C1CC(CC(=O)O)C2=O (some centres unmarked): N
- C[C@]12CCC3c4ccc(OS(N)(=O)=O)cc4CCC3C1C/C(=C\c1ccccc1)[C@@H]2O (some centres unmarked): N
- COCCn1ncc2c1[C@@]1(C)CCC3c4ccc(O)cc4CCC3C1C2 (some centres unmarked): N
